system: HOP-62 NSCLC; assay: NCI tumour cell line growth inhibition, 48 h
Readout kind: TGI (µM)
Your answer is read as µM, so omit the unit and give the number.

{"columns": ["Compound", "Readout units", "Meas value"],
 "data": [
  ["CC1=C(C(=O)Nc2ccc(Cl)c(Cl)c2)C(c2cccc(O)c2)NC(=S)N1 (stereo not given)", "µM", 31.2]
]}

# input Which TGI value belongs to "Clc1cccc(Cc2cn3cc(-c4ccccc4)nc3s2)c1" ?
# output 40.5

# input Likewise for "O=C(Nc1cccc(-n2cc(-c3ccncc3)c(-c3ccc(O)c(Cl)c3)n2)c1)Nc1ccc(Cl)c(C(F)(F)F)c1" ?
# output 9.77

----------
test system: OVCAR-5 ovarian; assay: NCI tumour cell line growth inhibition, 48 h
Readout kind: TGI

These recorded examples may help you get a feel for the data.
{"columns": ["Compound", "TGI"],
 "data": [
  ["COc1cc([C@@H]2c3cc4c(cc3[C@@H](NC(=O)c3ccc([N+](=O)[O-])cc3)C3COC(=O)[C@@H]32)OCO4)cc(OC)c1O (stereo partly drawn)", "76.2 µM"],
  ["CC(=O)OCC1OC(OC2CC3C(C)(C)C(=O)CC[C@]3(C)C3CC[C@]45C[C@]4(CCC5[C@@H](C)CC(O)C(O)C(C)(C)O)[C@]23C)C(O)C(O)C1O (stereo partly drawn)", "30.8 µM"],
  ["CCOC(=O)c1cc(Cl)ccc1OC(N)=O", "> 100 µM"],
  ["[O-][n+]1onc2c1-c1nonc1CC2", "> 100 µM"],
  ["O=c1nc2[nH]nc(-c3ccccc3)c2n[nH]1", "> 100 µM"]
]}

# input Which TGI value belongs to "Cc1ccc2cccc(OC(=O)c3cc4c(cc3Cl)Sc3nccn3S4(=O)=O)c2n1" ?
# output > 61.2 µM

----------
tested on: EKVX NSCLC; experiment: NCI tumour cell line growth inhibition, 48 h
Readout kind: TGI

{"columns": ["Molecule", "Readout kind", "Meas value"],
 "data": [
  ["Cc1ccc(S(=O)(=O)N/N=C2/CC[C@H](C(C)(C)C)C[C@@H]2C)cc1", "TGI", "32.2 µM"],
  ["COc1cc2c(cc1OC)C(=O)/C(=C/c1ccccc1)C2", "TGI", "> 100 µM"]
]}

# input Which TGI value belongs to "Nc1nn(C(=O)Nc2ccc(Cc3ccccc3)cc2)c2ccccc12" ?
# output 92 µM

# input Likewise for "CC(C)=CCC/C(C)=C/CC/C(C)=C/CC/C(C=O)=C/CC/C(C)=C\CC/C(C)=C/CC/C(C)=C/CC/C(C)=C/CC1=CC(=O)C=CC1=O" ?
# output > 100 µM

# input Likewise for "O=C1C=CC(=O)N1CCCCCCCCCCN1C(=O)C=CC1=O" ?
# output 39.2 µM

# input Likewise for O=C(CN1C(=O)c2ccccc2C1=O)OCC1CCCN2CCCCC12 (stereo not drawn) ?
# output > 100 µM

# input Likewise for CCC(CCCCC1CC[C@H]2CC(=O)C[C@@H]12)OC (stereo partly drawn) ?
# output > 100 µM

# input Likewise for "CO[C@H]1C[C@H](O[C@H]2CC[C@]3(C=O)[C@H]4CC[C@]5(C)[C@@H](C6=CC(=O)OC6)CC[C@]5(O)[C@@H]4CC[C@]3(O)C2)O[C@H](C)[C@H]1O[C@@H]1O[C@H](CO[C@@H]2O[C@H](CO)[C@@H](O)[C@H](O)[C@H]2O)[C@@H](O)[C@H](O)[C@H]1O" ?
# output 0.0631 µM
